- PROCEDURE_SUMMARY: viability loss in pontine glioma line – cell-based, JHH-DIPG-1, MIPE4.0, CellTiter-Glo, qHTS, dose response (AID 1347062);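 as to AC50: cells exposed to compound for two days before readout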
- PARTICULARS: JHH-DIPG-1 viability, CellTiter-Glo ATP luminescence
Inconclusive results are not listed. Activity calls are given as the source filed them. The limit is not given here; nearly all actives have AC50 up to about 27 µM.
Can you answer with just one of these options? active, inactive

| MOLECULE | CLASS |
| --- | --- |
| CNC1CCC(N(Cc2cccc(-c3ccncc3)c2)C(=O)c2sc3ccccc3c2Cl)CC1 (stereo not given) | active |
| CCc1cnn2c(NCc3ccc[n+]([O-])c3)cc(N3CCCC[C@H]3CCO)nc12 | active |
| CCN(CC)CCn1c(=O)c(Cc2ccc(OC)cc2)nc2ccccc21 | inactive |
| CC[C@@H]1C(=O)N(C)c2cnc(Nc3ccc(C(=O)NC4CCC(N5CCN(CC6CC6)CC5)CC4)cc3OC)nc2N1C(C)C (stereo not given in full) | active |
| CCC(=O)O[C@]1(C(=O)CO)CC[C@H]2[C@@H]3CCC4=CC(=O)CC[C@]4(C)[C@H]3CC[C@@]21C | inactive |

Input line: # outcome recorded in this test, key = "O=C(c1cc(Cc2n[nH]c(=O)c3ccccc23)ccc1F)N1CCN(C(=O)C2CC2)CC1"
Output line: inactive

Input line: Test call, this molecule: "CNC(=O)c1cc(Oc2ccc(NC(=O)Nc3cc(C(C)(C)C)nn3-c3ccc4ncccc4c3)c(F)c2)ccn1"
Output line: active

Input line: I'd appreciate the recorded outcome for "N#CC[C@H](C1CCCC1)n1cc(-c2ncnc3[nH]ccc23)cn1" from this test.
Output line: inactive

Input line: So what was the verdict on "N#Cc1c(C2CCNCC2)cc(-c2c(O)cccc2OCC2CC2)nc1N" in this test?
Output line: active

Input line: // outcome(item) with item = "N#CNC(=NCCCCCCOc1ccc(Cl)cc1)Nc1ccncc1"
Output line: active

====

- PROCEDURE_SUMMARY: JHH-DIPG-1 glioma cell viability, MIPE5.0 library, CellTiter-Glo luminescence, qHTS (AID 1347067);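 also: cells exposed to compound for 48 hours before readout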
- PARTICULARS: JHH-DIPG-1 glioma viability, CellTiter-Glo ATP luminescence
Inconclusive results are not listed. Calls of active or inactive are those of the source. No cut-off is given here; in the data, nearly all actives have AC50 up to about 26 µM.
ATTRIBUTE_MEASURED: AC50

Example cases with answers are listed next.
| COMPOUND | AC50 |
| --- | --- |
| Cc1nn(Cc2ccccc2Cl)c(C)c1CN(C)CC(O)COc1ccc(Cl)cc1 (stereo not drawn) | 23.5 µM (active) |
| Cn1cc(-c2cnn3c(N)c(Br)c(C4CCCNC4)nc23)cn1 (stereo not drawn) | inactive |
| Cc1cccc(Oc2cnc(=O)[nH]c2)c1 | inactive |
| Cc1ccc(-n2[nH]c(C)c(N=Nc3cccc(-c4cccc(C(=O)O)c4)c3O)c2=O)cc1C | inactive |
| CCOc1ccc(Cc2cc([C@@H]3O[C@H](CO)[C@@H](O)[C@H](O)[C@H]3O)ccc2Cl)cc1 | inactive |
| CN[C@@H]1C[C@H]2O[C@@](C)([C@@H]1OC)n1c3ccccc3c3c4c(c5c6ccccc6n2c5c31)C(=O)N[C@H]4O | 0.0382 µM (active) |

Input line: Consider the compound "C/C(O)=C(\C#N)C(=O)Nc1ccc(C(F)(F)F)cc1" and give its measured AC50.
Output line: inactive

Input line: I would be grateful if you could share the reported AC50 for "CCc1c(C(=O)NNC(=O)[C@@H](O)c2cc(F)cc(F)c2)ccc(O)c1C" .
Output line: inactive
